Every entry's value here was drawn from ChEMBL document CHEMBL1153153.

Assay: Inhibition of HIV reverse transcriptase
Design: species or system Human immunodeficiency virus
# Lookup of reported IC50 keyed by entry

Input: Entry "COc1ccc(CSc2nnc(-c3cccs3)n2Cc2ccccc2)cc1" has what IC50?
Output: > 103 µM

Input: Here is the next compound: "O=C(CSC(=S)N(Cc1ccccc1)Cc1ccccc1)Nc1ccc(Cl)c(Cl)c1Cl"
Output: > 80 µM

Input: Here is the next compound: "Clc1ccc(CSc2nnc(-c3ccccc3)n2Cc2ccccc2)cc1"
Output: > 103 µM

====

Experiment: Inhibition of HIV reverse transcriptase
Design: species or system Human immunodeficiency virus
QUANTITY NAME: IC50

Example results:
1) N#Cc1cccc(NC(=O)CSC(=S)N(Cc2ccccc2)c2ccccc2)c1 > 80 µM
2) O=C(CSC(=S)N(Cc1ccccc1)c1ccccc1)Nc1ccc(Cl)c(Cl)c1Cl > 80 µM
3) Cc1ccc(NC(=O)CSC(=S)N(Cc2ccccc2)Cc2ccccc2)c(C)c1 > 80 µM
4) O=C(CSC(=S)N(Cc1ccccc1)Cc1ccccc1)Nc1ccc(Cl)cc1Cl > 168 µM
5) N#Cc1cccc(NC(=O)CSC(=S)N(Cc2ccccc2)Cc2ccccc2)c1 > 80 µM

Alright, here's another compound for you.
Input: Entry "COc1ccc(C)cc1NC(=O)CSC(=S)N(Cc1ccccc1)c1ccccc1" has what IC50?
Output: > 80 µM

====

Assay: Therapeutic index, ratio of IC50 for HIV to EC50 for human MT4 cells
Assay type: cell-based
Conditions: read-out: Ratio IC50/EC50
QUANTITY NAME: selectivity ratio

Input: Entry "O=C(CSC(=S)N(Cc1ccccc1)Cc1ccccc1)Nc1ccc(Cl)c(Cl)c1Cl" has what selectivity ratio?
Output: > 4

Input: Here is the next compound: "Clc1ccc(CSc2nnc(-c3cccs3)n2Cc2ccccc2)cc1"
Output: 19.9

Input: Here is the next compound: "N#Cc1cccc(NC(=O)CSC(=S)N(Cc2ccccc2)Cc2ccccc2)c1"
Output: > 18
